System: wheat (Triticum aestivum)
Assay: Test A pre-/postemergence plant response
Format: in vivo
Details: Postemergence, 125 g ai/ha; 0 to 100 scale where 0 is no effect and 100 is complete control

{"compound": "COCCn1c(-c2ccccc2)ncc(C(=O)C2=C(O)CCCC2=O)c1=O", "Plant response rating, Wheat": 0}
{"compound": "CC(C)CC(=O)OC1=C(C(=O)c2cnc(-c3ccccc3)n(-c3ccccc3)c2=O)C(=O)CCC1", "Plant response rating, Wheat": 0}
{"compound": "COCCCn1c(-c2cc(F)cc(F)c2)ncc(C(=O)C2=C(O)CCCC2=O)c1=O", "Plant response rating, Wheat": 20}
{"compound": "COCCn1c(-c2cccc(F)c2)ncc(C(=O)C2=C(O)CCCC2=O)c1=O", "Plant response rating, Wheat": 0}
{"compound": "Cc1cc(F)ccc1-n1c(-c2cccc(Br)c2)ncc(C(=O)C2=C(O)CCCC2=O)c1=O", "Plant response rating, Wheat": 0}
{"compound": "CCCc1ncc(C(=O)C2=C(O)CCCC2=O)c(=O)n1Cc1cccc(OC)c1", "Plant response rating, Wheat": 0}
{"compound": "CCCn1c(-c2cccs2)ncc(C(=O)c2cnn(CC)c2O)c1=O", "Plant response rating, Wheat": 0}
{"compound": "O=C1CCCC(O)=C1C(=O)c1cnc(-c2cccc(F)c2)n(-c2ccccc2)c1=O", "Plant response rating, Wheat": 0}
{"compound": "COCCn1c(-c2cccc(C)c2)ncc(C(=O)C2=C(O)CCCC2=O)c1=O", "Plant response rating, Wheat": 0}
{"compound": "C#Cc1ccc(-c2ncc(C(=O)C3=C(O)CCCC3=O)c(=O)n2C2CCCCC2)cc1", "Plant response rating, Wheat": 20}
{"compound": "O=C1CCCC(O)=C1C(=O)c1cnc(-c2cc(F)cc(F)c2)n(C2CCCCC2)c1=O", "Plant response rating, Wheat": 30}
{"compound": "O=C1CCCC(O)=C1C(=O)c1cnc(C2CCCCC2)n(-c2ccccc2)c1=O", "Plant response rating, Wheat": 0}
{"compound": "CCn1c(-c2ccccc2)ncc(C(=O)C2=C(O)C3CCC(C3)C2=O)c1=O (centres unmarked)", "Plant response rating, Wheat": 0}
{"compound": "CCCCCc1ncc(C(=O)C2=C(O)CCCC2=O)c(=O)n1-c1ccccc1", "Plant response rating, Wheat": 0}
{"compound": "Cc1cccc(-c2ncc(C(=O)C3=C(O)CCCC3=O)c(=O)n2-c2ccccc2C)c1", "Plant response rating, Wheat": 0}
{"compound": "CCCCn1c(-c2cccc(Cl)c2)ncc(C(=O)C2=C(O)CCCC2=O)c1=O", "Plant response rating, Wheat": 20}
{"compound": "CCCCn1c(-c2cc(F)cc(F)c2)ncc(C(=O)C2=C(O)CCCC2=O)c1=O", "Plant response rating, Wheat": 30}

* * *

Below, each of the compounds is paired with its reported Plant response rating, Pigweed value.
System: pigweed (Amaranthus retroflexus)
Experiment: Test B pre-/postemergence plant response
Format: in vivo
Details: Postemergence, 125 g ai/ha; visual rating after 13 to 15 days, scale 0 (no effect) to 100 (complete control)

{"smilesNotation": "CCCc1ncc(C(=O)C2=C(O)CCCC2=O)c(=O)n1-c1ccccc1C", "Plant response rating, Pigweed": 100}
{"smilesNotation": "O=C1CCCC(O)=C1C(=O)c1cnc(-c2ccccc2)n(-c2cccc(Br)c2)c1=O", "Plant response rating, Pigweed": 98}
{"smilesNotation": "Cc1ccccc1-n1c(-c2ccccc2)ncc(C(=O)C2=C(O)CCCC2=O)c1=O", "Plant response rating, Pigweed": 98}
{"smilesNotation": "Cc1ccc(F)cc1-n1c(-c2ccccc2)ncc(C(=O)C2=C(O)CCCC2=O)c1=O", "Plant response rating, Pigweed": 98}
{"smilesNotation": "O=C1CCCC(O)=C1C(=O)c1cnc(-c2ccsc2)n(-c2ccccc2)c1=O", "Plant response rating, Pigweed": 100}
{"smilesNotation": "CCCn1c(-c2cccs2)ncc(C(=O)C2=C(O)CCCC2=O)c1=O", "Plant response rating, Pigweed": 100}
{"smilesNotation": "Cn1c(-c2ccccc2)ncc(C(=O)C2=C(O)CCCC2=O)c1=O", "Plant response rating, Pigweed": 90}
{"smilesNotation": "Cc1ccc(-c2ncc(C(=O)C3=C(O)CCCC3=O)c(=O)n2-c2ccccc2)cc1", "Plant response rating, Pigweed": 100}
{"smilesNotation": "O=C1CCCC(O)=C1C(=O)c1cnc(-c2cccc(Cl)c2)n(-c2ccc(Cl)cc2)c1=O", "Plant response rating, Pigweed": 100}
{"smilesNotation": "Cc1ccccc1-n1c(-c2cccc(Cl)c2)ncc(C(=O)C2=C(O)CCCC2=O)c1=O", "Plant response rating, Pigweed": 90}

* * *

Tested on: winter barley (Hordeum vulgare)
Assay: Test B postemergence plant response
Assay type: in vivo
Settings: 31 g ai/ha, postemergence; scale 0 to 100, 0 is no effect, 100 is complete control
Below, each of the compounds is paired with its reported Plant response rating, Barley value.

{"smilesNotation": "O=C1CCCC(OC(=O)C2CC2)=C1C(=O)c1cnc(-c2ccccc2)n(-c2ccccc2)c1=O", "Plant response rating, Barley": 30}
{"smilesNotation": "CCCCc1ncc(C(=O)C2=C(O)CCCC2=O)c(=O)n1-c1ccc(C)cc1", "Plant response rating, Barley": 0}
{"smilesNotation": "CCCCc1ncc(C(=O)C2=C(O)CCCC2=O)c(=O)n1-c1cccc(C)c1", "Plant response rating, Barley": 0}
{"smilesNotation": "COCCn1c(-c2cccc(C)c2)ncc(C(=O)C2=C(O)CCCC2=O)c1=O", "Plant response rating, Barley": 0}
{"smilesNotation": "CCCc1ncc(C(=O)C2=C(O)CCCC2=O)c(=O)n1-c1ccccc1C", "Plant response rating, Barley": 0}
{"smilesNotation": "COCCn1c(-c2cc(F)cc(F)c2)ncc(C(=O)C2=C(O)CCCC2=O)c1=O", "Plant response rating, Barley": 0}
{"smilesNotation": "CCCCCn1c(-c2ccccc2)ncc(C(=O)C2=C(O)CCCC2=O)c1=O", "Plant response rating, Barley": 0}
{"smilesNotation": "O=C1CCCC(O)=C1C(=O)c1cnc(-c2ccsc2)n(-c2ccccc2)c1=O", "Plant response rating, Barley": 0}
{"smilesNotation": "CCCn1c(-c2ccc(F)cc2)ncc(C(=O)C2=C(O)CCCC2=O)c1=O", "Plant response rating, Barley": 0}

* * *

System: morningglory (Ipomoea coccinea)
Test: Test B pre-/postemergence plant response
Assay type: in vivo
Conditions: Postemergence, 31 g ai/ha; 0 to 100 scale (0 no effect, 100 complete control)

{"smilesNotation": "COc1ccc(-n2c(-c3ccccc3)ncc(C(=O)C3=C(O)CCCC3=O)c2=O)cc1OC", "Plant response rating, Morningglory": 70}
{"smilesNotation": "COCCn1c(-c2cccc(Cl)c2)ncc(C(=O)C2=C(O)CCCC2=O)c1=O", "Plant response rating, Morningglory": 50}
{"smilesNotation": "O=C1CCCC(O)=C1C(=O)c1cnc(-c2ccc(F)cc2)n(C2CCCCC2)c1=O", "Plant response rating, Morningglory": 98}
{"smilesNotation": "CCCn1c(-c2cccc(Br)c2)ncc(C(=O)C2=C(O)CCCC2=O)c1=O", "Plant response rating, Morningglory": 60}
{"smilesNotation": "CCc1ccc(-n2c(-c3ccccc3)ncc(C(=O)C3=C(O)CCCC3=O)c2=O)cc1", "Plant response rating, Morningglory": 60}
{"smilesNotation": "CCc1ccccc1-n1c(-c2ccccc2)ncc(C(=O)C2=C(O)CCCC2=O)c1=O", "Plant response rating, Morningglory": 75}
{"smilesNotation": "Cc1ccc(F)cc1-n1c(-c2cccc(Cl)c2)ncc(C(=O)C2=C(O)CCCC2=O)c1=O", "Plant response rating, Morningglory": 20}
{"smilesNotation": "CCCn1c(-c2cccc(C(F)(F)F)c2)ncc(C(=O)C2=C(O)CCCC2=O)c1=O", "Plant response rating, Morningglory": 55}

* * *

Test system: sunflower (common oilseed sunflower, Helianthus annuus)
Assay: Test B pre-/postemergence plant response
Format: in vivo
Conditions: Preemergence, 62 g ai/ha; scale 0 to 100 (0 no effect, 100 complete control)
Below, each of the compounds is paired with its reported Plant response rating, Sunflower value.

{"compound": "CCCc1ncc(C(=O)C2=C(O)CCCC2=O)c(=O)n1CC1CCCO1 (stereo not shown)", "Plant response rating, Sunflower": 55}
{"compound": "CCCCn1c(-c2cc(F)cc(F)c2)ncc(C(=O)C2=C(O)C3CCC(C3)C2=O)c1=O (stereo not shown)", "Plant response rating, Sunflower": 70}
{"compound": "Cn1c(-c2ccccc2)ncc(C(=O)C2=C(O)CCCC2=O)c1=O", "Plant response rating, Sunflower": 60}
{"compound": "O=C1CCCC(O)=C1C(=O)c1cnc(-c2ccsc2)n(-c2ccccc2)c1=O", "Plant response rating, Sunflower": 60}

* * *

Below, each of the compounds is paired with its reported Plant response rating, Johnsongrass value.
Test system: johnsongrass (Sorghum halepense)
Assay: Test B pre-/postemergence plant response
Type: in vivo
Settings: 31 g ai/ha, postemergence; scale 0 to 100, 0 is no effect, 100 is complete control

{"compound": "COCCn1c(-c2cc(F)cc(F)c2)ncc(C(=O)C2=C(O)CCCC2=O)c1=O [Compound 119]", "Plant response rating, Johnsongrass": 10}
{"compound": "COCCCn1c(-c2cccc(C)c2)ncc(C(=O)C2=C(O)CCCC2=O)c1=O [Compound 118]", "Plant response rating, Johnsongrass": 10}
{"compound": "CCCCn1c(-c2cc(F)cc(F)c2)ncc(C(=O)C2=C(O)CCCC2=O)c1=O [Compound 121]", "Plant response rating, Johnsongrass": 20}
{"compound": "CCCc1ncc(C(=O)C2=C(O)CCCC2=O)c(=O)n1CC1CCCO1 (stereo not drawn) [Compound 74]", "Plant response rating, Johnsongrass": 0}
{"compound": "Cc1ccccc1-c1ncc(C(=O)C2=C(O)CCCC2=O)c(=O)n1-c1ccccc1 [Compound 82]", "Plant response rating, Johnsongrass": 65}
{"compound": "Cn1c(-c2ccccc2)ncc(C(=O)C2=C(O)CCCC2=O)c1=O [Compound 55]", "Plant response rating, Johnsongrass": 0}
